# Test system: TF-1
# assay_details: cells
# measurement_context: Homo sapiens, TF-1, 72 h
# Description: Cytotoxicity against human TF1 cells expressing FLT3 ITD assessed as cell viability after 72 hrs by resazurin dye based fluorescence assay
experimental_readout: IC50 (nM)
Answers are plain numbers, in nM.

Sample answers from the record:
> print(dat)
                                smiles.text  unit.abbreviation  number
1  COc1ccccc1Nc1nc(N)n(-c2cc(NCCN(C)C)ncn2)n1                 nM      14
2  CN1CCC(c2ccc(Nc3nc(N)n(-c4ccccn4)n3)cc2)CC1                 nM       5
3  Nc1nc(Nc2ccc(C(=O)NCCN3CCOCC3)cc2)nn1-c1ccccn1                 nM       6
4  COc1ccc(N2CCOCC2)cc1Nc1nc(N)n(-c2ccccn2)n1                 nM      89
5   Nc1nc(Nc2cc(N3CCOCC3)ccc2F)nn1-c1ccccn1                 nM      28

// next entry
What value of measured IC50 is listed for Nc1nc(Nc2ccc(N3CCOCC3)cc2)nn1-c1ccccn1 ?
7

---

# study_target: Tyrosine-protein kinase receptor UFO (Homo sapiens)
# Sequence (P30530 whole entry): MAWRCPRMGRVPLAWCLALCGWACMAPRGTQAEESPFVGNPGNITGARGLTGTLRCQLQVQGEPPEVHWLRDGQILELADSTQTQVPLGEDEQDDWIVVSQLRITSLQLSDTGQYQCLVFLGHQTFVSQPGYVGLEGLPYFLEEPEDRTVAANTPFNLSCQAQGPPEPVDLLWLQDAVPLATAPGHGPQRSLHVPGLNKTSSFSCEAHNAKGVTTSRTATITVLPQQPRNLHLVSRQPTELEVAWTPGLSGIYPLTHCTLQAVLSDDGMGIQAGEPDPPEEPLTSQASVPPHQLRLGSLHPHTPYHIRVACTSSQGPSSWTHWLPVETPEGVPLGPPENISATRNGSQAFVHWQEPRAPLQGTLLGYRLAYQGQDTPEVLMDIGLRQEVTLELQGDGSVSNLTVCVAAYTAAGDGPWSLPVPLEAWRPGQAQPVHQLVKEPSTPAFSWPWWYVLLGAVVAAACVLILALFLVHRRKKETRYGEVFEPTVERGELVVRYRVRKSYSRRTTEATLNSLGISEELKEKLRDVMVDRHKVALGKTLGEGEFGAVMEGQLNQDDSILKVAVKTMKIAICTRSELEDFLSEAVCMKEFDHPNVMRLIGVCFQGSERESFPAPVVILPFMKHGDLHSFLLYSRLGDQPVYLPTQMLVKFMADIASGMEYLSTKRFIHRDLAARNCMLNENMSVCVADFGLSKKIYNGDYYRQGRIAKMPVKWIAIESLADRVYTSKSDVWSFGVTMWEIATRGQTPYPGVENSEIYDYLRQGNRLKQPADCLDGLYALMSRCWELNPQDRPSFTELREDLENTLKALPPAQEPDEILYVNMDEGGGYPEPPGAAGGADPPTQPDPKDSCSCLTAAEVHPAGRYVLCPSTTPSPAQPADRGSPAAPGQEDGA
experimental_readout: pKi
Numbers only, as −log10 of the molar value.

What value of measured pKi is listed for Nc1nc(Nc2ccc([C@H]3CC[C@H](N4CCOCC4)CC3)cc2)nn1-c1ccccn1 ?
7.40

---

# assay_details: Oral bioavailability in BALB/c mouse
# Assay type: ADME, organism-based
# measurement_context: in vivo
experimental_readout: bioavailability

What value of measured bioavailability is listed for Nc1nc(Nc2ccc([C@H]3CC[C@H](N4CCOCC4)CC3)cc2)nn1-c1ccccn1 ?
100%

---

# study_target: Mast/stem cell growth factor receptor Kit (Homo sapiens)
# Sequence (P10721 whole entry): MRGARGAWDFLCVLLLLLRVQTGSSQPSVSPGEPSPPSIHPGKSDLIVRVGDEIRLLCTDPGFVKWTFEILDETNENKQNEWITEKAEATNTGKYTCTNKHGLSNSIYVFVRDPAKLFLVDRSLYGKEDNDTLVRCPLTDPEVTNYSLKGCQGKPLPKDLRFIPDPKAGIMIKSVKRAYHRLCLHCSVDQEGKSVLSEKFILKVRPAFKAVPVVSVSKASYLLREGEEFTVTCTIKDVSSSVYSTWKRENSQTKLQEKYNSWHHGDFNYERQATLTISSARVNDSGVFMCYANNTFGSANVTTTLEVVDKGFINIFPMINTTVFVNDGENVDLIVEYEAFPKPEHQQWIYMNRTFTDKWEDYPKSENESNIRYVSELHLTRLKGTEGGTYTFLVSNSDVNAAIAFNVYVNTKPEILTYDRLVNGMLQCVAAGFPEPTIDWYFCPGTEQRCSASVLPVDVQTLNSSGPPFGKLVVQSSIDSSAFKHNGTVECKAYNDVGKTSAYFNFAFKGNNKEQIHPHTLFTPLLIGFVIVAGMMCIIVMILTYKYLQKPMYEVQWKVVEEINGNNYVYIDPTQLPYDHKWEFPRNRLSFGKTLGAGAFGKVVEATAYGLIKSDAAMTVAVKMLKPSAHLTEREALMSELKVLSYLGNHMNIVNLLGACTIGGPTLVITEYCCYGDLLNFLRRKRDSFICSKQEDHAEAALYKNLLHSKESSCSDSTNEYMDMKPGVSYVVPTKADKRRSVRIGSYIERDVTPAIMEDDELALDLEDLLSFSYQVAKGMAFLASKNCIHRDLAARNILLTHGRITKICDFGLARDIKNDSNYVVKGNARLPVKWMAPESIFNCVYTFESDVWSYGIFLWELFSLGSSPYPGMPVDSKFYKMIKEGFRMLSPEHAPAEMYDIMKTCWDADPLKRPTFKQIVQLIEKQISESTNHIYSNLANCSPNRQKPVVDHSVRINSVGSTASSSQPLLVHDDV
# assay_details: Inhibition of human recombinant c-Kit by radiometric assay
experimental_readout: IC50 (nM)
Give bare numbers, in nM.

> print(dat)
                                smiles.text  number
1  COc1ccc(N2CCOCC2)cc1Nc1nc(N)n(-c2ccccn2)n1    2300

// input: 2 compounds below; output: IC50 for each
1. Nc1nc(Nc2cc(N3CCOCC3)ccc2F)nn1-c1ccccn1
2. COc1ccccc1Nc1nc(N)n(-c2cc(NCCN(C)C)ncn2)n1

1. 760
2. 1160

---

# study_target: Receptor-type tyrosine-protein kinase FLT3 (Homo sapiens, UniProt P36888, ITD)
# Sequence (P36888 whole entry, looked up, change not shown): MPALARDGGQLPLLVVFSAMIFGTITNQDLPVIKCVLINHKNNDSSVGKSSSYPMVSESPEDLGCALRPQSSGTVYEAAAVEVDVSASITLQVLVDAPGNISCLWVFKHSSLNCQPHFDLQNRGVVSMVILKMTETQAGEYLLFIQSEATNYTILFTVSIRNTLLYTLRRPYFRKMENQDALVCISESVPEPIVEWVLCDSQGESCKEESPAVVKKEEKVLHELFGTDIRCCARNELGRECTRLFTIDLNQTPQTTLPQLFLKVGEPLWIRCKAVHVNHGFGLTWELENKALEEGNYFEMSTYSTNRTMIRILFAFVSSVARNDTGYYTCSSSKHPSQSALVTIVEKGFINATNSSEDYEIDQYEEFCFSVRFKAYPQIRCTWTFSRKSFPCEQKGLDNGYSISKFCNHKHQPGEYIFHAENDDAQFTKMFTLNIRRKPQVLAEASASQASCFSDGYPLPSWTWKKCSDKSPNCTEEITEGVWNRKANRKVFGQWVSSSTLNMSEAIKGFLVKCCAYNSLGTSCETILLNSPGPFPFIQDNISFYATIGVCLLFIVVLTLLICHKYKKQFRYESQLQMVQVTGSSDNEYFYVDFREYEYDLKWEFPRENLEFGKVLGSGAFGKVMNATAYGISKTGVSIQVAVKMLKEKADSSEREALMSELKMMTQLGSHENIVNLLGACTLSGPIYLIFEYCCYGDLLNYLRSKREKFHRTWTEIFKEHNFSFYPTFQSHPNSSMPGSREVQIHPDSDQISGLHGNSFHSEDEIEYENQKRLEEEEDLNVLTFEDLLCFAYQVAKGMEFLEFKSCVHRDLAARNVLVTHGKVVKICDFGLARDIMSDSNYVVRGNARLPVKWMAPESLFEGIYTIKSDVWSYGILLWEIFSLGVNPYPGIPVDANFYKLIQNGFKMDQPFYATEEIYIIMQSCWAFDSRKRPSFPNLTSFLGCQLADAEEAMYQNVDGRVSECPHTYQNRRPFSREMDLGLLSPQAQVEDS
# assay_details: Inhibition of FLT3 ITD mutant mediated Stat5 phosphorylation in human MV4-11 cells by immunoblot analysis
# Format: cell-based
experimental_readout: pIC50
Give bare numbers, as −log10 of the molar value.

Item Nc1nc(Nc2ccc([C@H]3CC[C@H](N4CCOCC4)CC3)cc2)nn1-c1ccccn1 with Receptor-type tyrosine-protein kinase FLT3 (Homo sapiens, UniProt P36888, ITD) - pIC50?
8.89

---

# study_target: Hepatocyte growth factor receptor (Homo sapiens, UniProt P08581)
# Sequence (P08581 whole entry): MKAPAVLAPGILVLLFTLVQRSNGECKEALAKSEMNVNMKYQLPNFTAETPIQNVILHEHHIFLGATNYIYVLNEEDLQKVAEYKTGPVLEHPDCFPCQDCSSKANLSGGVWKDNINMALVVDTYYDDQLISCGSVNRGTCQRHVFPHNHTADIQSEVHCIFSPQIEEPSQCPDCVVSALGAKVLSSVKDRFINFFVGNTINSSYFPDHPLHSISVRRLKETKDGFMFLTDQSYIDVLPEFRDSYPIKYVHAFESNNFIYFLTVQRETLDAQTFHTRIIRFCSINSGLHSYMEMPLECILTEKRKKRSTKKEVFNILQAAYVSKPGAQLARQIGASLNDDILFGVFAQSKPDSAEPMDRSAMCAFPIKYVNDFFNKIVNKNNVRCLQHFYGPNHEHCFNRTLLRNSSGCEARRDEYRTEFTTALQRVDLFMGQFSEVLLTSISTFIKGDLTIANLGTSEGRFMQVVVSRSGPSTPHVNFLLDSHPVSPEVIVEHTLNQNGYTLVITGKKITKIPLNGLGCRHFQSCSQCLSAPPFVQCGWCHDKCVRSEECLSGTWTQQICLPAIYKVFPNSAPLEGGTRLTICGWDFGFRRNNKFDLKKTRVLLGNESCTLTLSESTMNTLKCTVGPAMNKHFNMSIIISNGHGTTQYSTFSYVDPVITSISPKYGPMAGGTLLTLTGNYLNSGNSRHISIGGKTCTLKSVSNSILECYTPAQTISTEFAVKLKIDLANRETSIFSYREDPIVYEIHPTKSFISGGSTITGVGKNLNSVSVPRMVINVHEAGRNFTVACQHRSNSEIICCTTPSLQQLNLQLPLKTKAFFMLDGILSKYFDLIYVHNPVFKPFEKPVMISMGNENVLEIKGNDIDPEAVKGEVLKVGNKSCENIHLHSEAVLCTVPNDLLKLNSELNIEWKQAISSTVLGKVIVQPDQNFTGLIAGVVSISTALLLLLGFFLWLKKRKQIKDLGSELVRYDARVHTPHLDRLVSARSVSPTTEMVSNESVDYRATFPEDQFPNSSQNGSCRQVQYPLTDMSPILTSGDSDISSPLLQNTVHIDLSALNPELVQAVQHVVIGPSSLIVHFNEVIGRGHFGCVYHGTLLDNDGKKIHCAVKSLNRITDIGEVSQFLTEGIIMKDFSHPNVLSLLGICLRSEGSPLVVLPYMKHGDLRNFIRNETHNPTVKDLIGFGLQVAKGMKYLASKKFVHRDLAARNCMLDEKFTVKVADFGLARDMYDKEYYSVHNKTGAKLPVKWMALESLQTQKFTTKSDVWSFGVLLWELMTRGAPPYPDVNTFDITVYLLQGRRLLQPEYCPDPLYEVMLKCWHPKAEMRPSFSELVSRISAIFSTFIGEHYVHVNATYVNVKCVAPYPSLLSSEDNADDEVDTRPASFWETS
experimental_readout: Ki (nM)
Give bare numbers, in nM.

What value of measured Ki is listed for Nc1nc(Nc2ccc([C@H]3CC[C@H](N4CCOCC4)CC3)cc2)nn1-c1ccccn1 ?
130

---

# assay_details: cells
# measurement_context: Homo sapiens, Leukemia cell, 72 h
# Description: Cytotoxicity against human primary leukemia cells isolated from acute myeloid leukemia patient expressing FLT3-ITD mutation assessed as cell viability after 72 hrs by luciferase assay
Give measured pIC50 for each item. Keep answers brief.
Give bare numbers, as −log10 of the molar value.

> print(dat)
                                smiles.text  number
1  CN1CCC(c2ccc(Nc3nc(N)n(-c4ccccn4)n3)cc2)CC1    8.40
2   Nc1nc(Nc2cc(N3CCOCC3)ccc2F)nn1-c1ccccn1    6.39

What value of measured pIC50 is listed for COc1ccccc1Nc1nc(N)n(-c2cc(NCCN(C)C)ncn2)n1 ?
7.05
